Tested on: Trachea
assay.text: Induction of bronchodilation in guinea pig tracheal rings assessed as reduction in histamine-induced contractions
Type: functional, tissue-based
measurement.context: Cavia porcellus
Class (required): determined from IC50; valid ranges are low: < 8 µM; middle: ≥ 8 µM and < 10 µM; high: ≥ 10 µM

Use these answered entries as a reference point.
| cpd.smiles | discrete.label |
| --- | --- |
| COc1nc(-c2ccncc2)cc(-c2ccc(Cl)cc2Cl)c1C#N | high |
| CCOc1nc(-c2ccc(Br)cc2)cc(-c2ccc(Cl)cc2Cl)c1C#N | high |
| CCOc1nc2c(c(-c3ccc(Cl)cc3Cl)c1C#N)-c1ccccc1CC2 | low |
| COc1nc(-c2ccc(Cl)cc2)cc(-c2ccc(Cl)cc2Cl)c1C#N | low |
| COc1nc2c(c(-c3ccc(Cl)cc3Cl)c1C#N)CSc1ccccc1-2 | high |
| CCOc1nc(-c2cccs2)cc(-c2ccc(Cl)cc2Cl)c1C#N | middle |

Q: # bin label for COc1nc(-c2ccccc2)cc(-c2ccc(Cl)cc2Cl)c1C#N
Ans: low

Q: # bin label for COc1cc2c(cc1OC)-c1nc(OC)c(C#N)c(-c3ccc(Cl)cc3Cl)c1C2
Ans: low

Q: # bin label for CCN1CCN(c2nc(-c3ccc(Cl)cc3)cc(-c3ccc(Cl)cc3Cl)c2C#N)CC1
Ans: high

Q: # bin label for CCOc1nc2c(c(-c3ccc(Cl)cc3Cl)c1C#N)-c1ccccc1C2
Ans: high

Q: # bin label for COc1nc(-c2cccs2)cc(-c2ccc(Cl)cc2Cl)c1C#N
Ans: low

Q: # bin label for N#Cc1c(-c2ccc(Cl)cc2Cl)cc(-c2ccc(Cl)cc2)nc1Br
Ans: middle

Q: # bin label for CN1CCN(c2nc(-c3ccc(Cl)cc3)cc(-c3ccc(Cl)cc3Cl)c2C#N)CC1
Ans: high

Q: # bin label for N#Cc1c(-c2ccc(Cl)cc2Cl)cc(-c2ccc(Cl)cc2)nc1N1CCOCC1
Ans: low

Q: # bin label for CCOc1nc(-c2ccc(Cl)cc2)cc(-c2ccc(Cl)cc2Cl)c1C#N
Ans: middle

----------
Tested on: Trachea
assay.text: Induction of bronchodilation in guinea pig tracheal rings assessed as reduction in histamine-induced contractions
Format: functional, tissue-based
measurement.context: Cavia porcellus
readout.type: pIC50
On this scale, pIC50 is minus log10 of a concentration expressed in M (mol/L).

| cpd.smiles | pIC50 |
| --- | --- |
| CCOc1nc(-c2ccc(F)cc2)cc(-c2ccc(Cl)cc2Cl)c1C#N | 5.10 |
| COc1ccc(-c2cc(-c3ccc(Cl)cc3Cl)c(C#N)c(OC)n2)cc1 | 5.00 |
| COc1nc(-c2ccc(Br)cc2)cc(-c2ccc(Cl)cc2Cl)c1C#N | 5.10 |
| COc1nc2c(c(-c3ccc(Cl)cc3Cl)c1C#N)CCCc1ccccc1-2 | 5.00 |
| N#Cc1c(-c2ccc(Cl)cc2Cl)cc(-c2ccc(Cl)cc2)nc1N1CCCCC1 | 5.11 |

We next turn to a different compound, shown below.
Q: Please report pIC50 for the following compound: COc1ccc(-c2cc(-c3ccc(Cl)cc3Cl)c(C#N)c(OC)n2)cc1OC
Ans: 5.10
